Ref: patent US10344026B2

Assign IC50 to each entry below.
Test system: Ishikawa (K-Ras wild type cell line)
Experiment: Viability assay (CellTiterBlue, 72 hr) Ishikawa
Format: cell-based
Settings: Homo sapiens, GI50, CellTiterBlue, Ishikawa K-Ras wild-type

Given item CCc1nc(C)c(C(=O)Nc2nc(-c3ccc4c(c3)CCC(=O)N4Cc3ccncc3)cs2)o1 [Compound 65] , the value recorded as its IC50 is > 25 µM

Given item Cc1nc(C)c(C(=O)Nc2nc(-c3ccc4c(c3)CCC(=O)N4CC3CCCCC3)cs2)o1 [Compound 62] , the value recorded as its IC50 is 3 µM

Given item CCCn1nc(C)c(C(=O)Nc2nc(-c3ccc4c(c3)CCC(=O)N4)cs2)c1C [Compound 55] , the value recorded as its IC50 is > 25 µM

Given item Cn1nccc1C(=O)Nc1nc(-c2ccc3c(c2)CCC(=O)N3)cs1 [Compound 51] , the value recorded as its IC50 is > 25 µM
